Below, each entry is listed with its recorded KdRitu/Kdmutant.
Target: T1, biotin labeled antigen peptide (a fragment of the CD20 extracellular domain) (human, UniProt P11836 163-187, limits assumed, biotin labeled (position not given))
T1 construct: domain: a fragment of the CD20 extracellular domain; also called short peptide CD20; CD20 antigen
T1 peptide (looked up): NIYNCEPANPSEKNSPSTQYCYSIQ
Test: Biacore SPR, biotin-CD20 peptide on SA chip; ratio against commercially available rituximab
Just the number, please, no unit attached.

[
  {
    "binder": "C2B8 antibody mutant Rmut1 (H55NE) (antibody, V domains shown) VH: QVQLQQPGAELVKPGASVKMSCKASGYTFTSYNMHWVKQTPGRGLEWIGAIYPGEGDTSYNQKFKGKATLTADKSSSTAYMQLSSLTSEDSAVYYCARSTYYGGDWYFNVWGAGTTVTVSA VL: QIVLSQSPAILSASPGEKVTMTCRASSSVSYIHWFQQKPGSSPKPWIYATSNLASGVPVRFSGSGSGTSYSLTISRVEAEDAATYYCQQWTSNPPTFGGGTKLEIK",
    "observed_value": 0.69
  }
]

--- query ---
Look up KdRitu/Kdmutant: C2B8 antibody mutant Rmut6 (H102YT) (antibody, V domains shown) VH: QVQLQQPGAELVKPGASVKMSCKASGYTFTSYNMHWVKQTPGRGLEWIGAIYPGNGDTSYNQKFKGKATLTADKSSSTAYMQLSSLTSEDSAVYYCARSTYTGGDWYFNVWGAGTTVTVSA VL: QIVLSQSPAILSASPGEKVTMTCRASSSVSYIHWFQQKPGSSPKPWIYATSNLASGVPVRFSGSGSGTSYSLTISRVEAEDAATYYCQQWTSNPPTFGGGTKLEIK
2.34
